Hey, just so you know, these numbers are from the supplement of paper PMC5908809.

- Tested on: IMC-1 (IL-2 20 ng/mL);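 also: normalised to DMSO-only wells as negative and benzethonium chloride as positive control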
- Assay Details: percent inhibition of viability; higher = more inhibition
- Measurement Conditions: 72 h; 100 nM
Readout Name: percent inhibition of viability
Put your answer as a value accompanied by its unit after it.

Record excerpt, results attached:
>>> recorded_measurement("COc1cc(N2CCC(N3CCN(C)CC3)CC2)ccc1Nc1ncnc(Nc2ccccc2S(=O)(=O)C(C)C)n1 [ASP3026] (max concentration tested 10000 nM)")
"-7.48%"
>>> recorded_measurement("CN1CCC(COc2cnc(-c3cccc(Cn4nc(-c5cccc(C#N)c5)ccc4=O)c3)nc2)CC1 (max concentration tested 1000 nM)")
"-1.98%"
>>> recorded_measurement("COc1cc(OC2CCN(C)CC2)ccc1Nc1ncc2c(n1)n(C1CCCC1)c(=O)n2C [AZ 3146] (max concentration tested 10000 nM)")
"8.86%"
>>> recorded_measurement("O=C(/C=C/c1cccc(S(=O)(=O)Nc2ccccc2)c1)NO [Belinostat] (max concentration tested 10000 nM)")
"20.2%"
>>> recorded_measurement("Nc1nc(F)nc2c1ncn2[C@@H]1O[C@H](CO)[C@@H](O)[C@@H]1O [Fludarabine] (max concentration tested 10000 nM)")
"-0.32%"

# input I am curious: what percent inhibition of viability value has been reported for Nc1nc(N)c2nc(-c3cccc(O)c3)c(-c3cccc(O)c3)nc2n1 [TG100-115] (max concentration tested 10000 nM) ?
# output 4.32%
